target: wild type c-kit (Homo sapiens (Human)); experiment: PathScan phospho c-kit (Tyr719) sandwich ELISA in SCF-stimulated M-07e cells (pKIT assay); format: cell-based; conditions: ELISA assay (values not marked *)
value-type: IC50 (nM)

Here's what some known entries look like.
{"columns": ["compound", "measured-on", "result-units", "measured"],
 "data": [
  ["COCCNc1ccn2ncc(C(=O)Nc3cc(-c4nnn(C5CC(F)C5)n4)ccc3C)c2c1 (stereo not shown)", "wild type c-kit (Homo sapiens (Human))", "nM", 4.1],
  ["Cc1cc(F)c(-c2nnn(C3CC3)n2)cc1NC(=O)c1cnn2ccc(-c3cn(C[C@H](O)C(C)(C)O)nc3C3CC3)cc12", "wild type c-kit (Homo sapiens (Human))", "nM", 0.4],
  ["Cc1nn(C[C@H](O)CO)c(C)c1-c1ccn2ncc(C(=O)Nc3cc(-c4nnn(C5CC5)n4)ccc3Cl)c2c1", "wild type c-kit (Homo sapiens (Human))", "nM", 0.1]
]}

I. COCCNc1ccn2ncc(C(=O)Nc3cc(-c4nnn([C@H]5C[C@H](CO)C5)n4)ccc3C)c2c1
II. Cc1ccc(-c2nnn(C3CN(S(=O)(=O)C(C)C)C3)n2)cc1NC(=O)c1cnn2ccccc12
III. Cc1c(-c2ccn3ncc(C(=O)Nc4cc(-c5nnn(C6CC6)n5)c(F)cc4Cl)c3c2)cnn1C[C@H](C)O
IV. COC[C@@H](O)Cn1cc(-c2ccn3ncc(C(=O)Nc4cc(-c5nnn(C6CC6)n5)ccc4C)c3c2)c(C2CC2)n1
Query: Number of compounds to sort: 4. Sort criterion: IC50, ascending. // ordering of labels required in reply
Result: IV, III, II, I
(IV: 0.1 nM, III: 0.5 nM, II: 8.8 nM, I: 15.6 nM)

---

biological target: wild type c-kit (Homo sapiens (Human)); experiment: MSD Phospho c-Kit (Tyr721) Assay Whole Cell Lysate Kit in SCF-stimulated M-07e cells (pKIT assay, marked *); format: cell-based; conditions: Meso Scale Discovery (MSD) assay (values marked *)
value-type: IC50 (nM)

Here's what some known entries look like.
{"columns": ["compound", "IC50 [nM]"],
 "data": [
  ["COc1ccn2ncc(C(=O)Nc3cc(-c4nnn(C5CN(S(C)(=O)=O)C5)n4)ccc3C)c2c1", 4.5],
  ["Cc1ccc(-c2nnn(C(C)C3CCOCC3)n2)cc1NC(=O)c1cnn2ccccc12 (single isomer, unassigned)", 9.1],
  ["Cc1ccc(-c2nnn(C3CC(F)C3)n2)cc1NC(=O)c1cnn2ccccc12 (stereo not shown)", 2.5],
  ["Cc1ccc(-c2nnn(CC3CC3(F)F)n2)cc1NC(=O)c1cnn2ccccc12 (stereo not shown)", 4.5],
  ["Cc1ccc(-c2nnn(CCOCC(F)(F)F)n2)cc1NC(=O)c1cnn2ccccc12", 5.7],
  ["Cc1ccc(-c2nnn([C@H]3C[C@H](C(F)(F)F)C3)n2)cc1NC(=O)c1cnn2ccc(-c3cn[nH]c3)cc12", 1.5],
  ["Cc1ccc(-c2nnn(C3CC(F)(F)C3)n2)cc1NC(=O)c1cnn2ccccc12", 5],
  ["CS(=O)(=O)N1CC(c2nnn(-c3ccc(Cl)c(NC(=O)c4cnn5ccccc45)c3)n2)C1", 6.2]
]}

1. Cc1ccc(-c2nnn(C[C@@H]3CC3(F)F)n2)cc1NC(=O)c1cnn2ccc(-c3cn[nH]c3)cc12 (single isomer, unassigned)
2. O=C(Nc1cc(-c2nnn(CCOCC(F)(F)F)n2)ccc1Cl)c1cnn2ccccc12
Query: Hi there, can you help? I need to know whether 1 or 2 has lower measured IC50. Return value: the label identifying the chosen record.
Result: 1
(1: 1.1 nM, 2: 1.9 nM)

P. Cc1ccc(-c2nnn([C@H]3C[C@H](C(F)(F)F)C3)n2)cc1NC(=O)c1cnn2ccccc12
Q. Cc1ccc(-c2nnn(C[C@H]3CCCCO3)n2)cc1NC(=O)c1cnn2ccccc12 (single isomer, unassigned)
Query: Hi there, can you help? I need to know whether P or Q has lower measured IC50. Return value: the label identifying the chosen record.
Result: P

1. Cc1ccc(-c2nnn(C3CC3)n2)cc1NC(=O)c1cnn2ccccc12
2. Cc1ccc(-c2nnn(C3CC4(C3)CC4(F)F)n2)cc1NC(=O)c1cnn2ccccc12 (single isomer, unassigned)
Query: Would you let me know which has the greater IC50 value, 1 or 2 ? Return value: the label identifying the chosen record.
Result: 1
(1: 9.1 nM, 2: 3.8 nM)

1. COC(=O)N1CC(c2cnn(-c3ccc(Cl)c(NC(=O)c4cnn5ccccc45)c3)n2)C1
2. Cc1ccc(-c2nnn([C@@H](C)c3ccccc3F)n2)cc1NC(=O)c1cnn2ccccc12
Query: Would you let me know which has the greater IC50 value, 1 or 2 ? Return value: the label identifying the chosen record.
Result: 1

---

target: human P-glycoprotein (P-gp, MDR1) (Homo sapiens (Human)); assay: MDCK-MDR1 cell monolayer drug transport assay (P-gp efflux ratio); format: in vitro ADME; details: pH 7.4, MDCK-MDR1 cells, 1 uM concentration of compound, read-out: Pgp Efflux Ratio, 1 uM
Sequence (P08183 whole entry): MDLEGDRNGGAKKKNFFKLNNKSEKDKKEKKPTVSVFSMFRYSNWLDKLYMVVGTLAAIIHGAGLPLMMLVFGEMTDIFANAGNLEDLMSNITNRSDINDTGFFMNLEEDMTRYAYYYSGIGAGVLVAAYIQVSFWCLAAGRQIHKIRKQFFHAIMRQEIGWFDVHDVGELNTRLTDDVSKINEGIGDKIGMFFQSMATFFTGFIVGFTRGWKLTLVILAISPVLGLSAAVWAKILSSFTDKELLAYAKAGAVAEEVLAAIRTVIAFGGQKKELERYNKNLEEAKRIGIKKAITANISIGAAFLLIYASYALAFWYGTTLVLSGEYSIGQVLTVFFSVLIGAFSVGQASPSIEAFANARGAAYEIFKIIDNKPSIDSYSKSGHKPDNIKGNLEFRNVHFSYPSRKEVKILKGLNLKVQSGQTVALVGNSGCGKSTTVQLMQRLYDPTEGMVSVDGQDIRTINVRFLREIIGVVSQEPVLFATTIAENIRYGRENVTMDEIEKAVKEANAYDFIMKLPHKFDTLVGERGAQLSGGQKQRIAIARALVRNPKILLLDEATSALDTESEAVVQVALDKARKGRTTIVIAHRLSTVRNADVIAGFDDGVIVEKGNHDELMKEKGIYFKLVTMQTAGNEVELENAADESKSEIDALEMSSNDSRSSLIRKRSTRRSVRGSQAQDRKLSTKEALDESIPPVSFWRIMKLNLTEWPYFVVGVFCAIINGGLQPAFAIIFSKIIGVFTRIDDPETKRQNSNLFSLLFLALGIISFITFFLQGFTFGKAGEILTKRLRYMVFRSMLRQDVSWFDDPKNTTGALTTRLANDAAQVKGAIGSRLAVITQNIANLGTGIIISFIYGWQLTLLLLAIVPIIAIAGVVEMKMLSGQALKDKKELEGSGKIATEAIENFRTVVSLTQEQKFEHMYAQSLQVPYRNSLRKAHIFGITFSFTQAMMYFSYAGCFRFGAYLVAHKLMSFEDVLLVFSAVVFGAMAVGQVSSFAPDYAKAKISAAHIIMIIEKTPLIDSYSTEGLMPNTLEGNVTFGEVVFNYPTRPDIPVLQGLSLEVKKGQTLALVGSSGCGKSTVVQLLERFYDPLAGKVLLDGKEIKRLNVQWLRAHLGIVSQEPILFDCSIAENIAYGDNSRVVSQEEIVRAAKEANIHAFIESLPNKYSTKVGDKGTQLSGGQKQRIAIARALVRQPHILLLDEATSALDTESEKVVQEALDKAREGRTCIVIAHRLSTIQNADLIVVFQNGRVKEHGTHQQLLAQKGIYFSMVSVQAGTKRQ
value-type: efflux ratio at 2 h, 1 µM

{"columns": ["smiles-input", "measured"],
 "data": [
  ["Cc1ccc(-c2nnn([C@H]3C[C@@H](C(F)(F)F)C3)n2)cc1NC(=O)c1cnn2ccc(N3CCC(C)(O)CC3)cc12", 12.8],
  ["COCCOCCNc1ccn2ncc(C(=O)Nc3cc(-c4nnn(C5CN(C(=O)OC)C5)n4)ccc3C)c2c1", 15.4],
  ["Cc1ccc(-c2nnn(CCOCC(F)(F)F)n2)cc1NC(=O)c1cnn2ccc(-c3cn[nH]c3)cc12", 41],
  ["Cc1cnn(-c2ccc(C)c(NC(=O)c3cnn4ccc(-c5cnn(C[C@H]6CNCCO6)c5)cc34)c2)n1", 33.1],
  ["Cc1ccc(-c2nnn(C3CN(S(C)(=O)=O)C3)n2)cc1NC(=O)c1cnn2ccc(COCC(F)F)cc12", 37.6]
]}

P. COC(=O)N1CC(n2nnc(-c3ccc(C)c(NC(=O)c4cnn5ccc(N6CC[C@H]6CO)cc45)c3)n2)C1
Q. COC[C@@H](O)Cn1cc(-c2ccn3ncc(C(=O)Nc4cc(-c5nnn(C6CC6)n5)c(F)cc4C)c3c2)c(C2CC2)n1
R. Cc1cc(F)c(-c2nnn(C3CC3)n2)cc1NC(=O)c1cnn2ccc(-c3cnn(CC(C)(C)O)c3)cc12
Query: Ranking field: efflux ratio at 2 h, 1 µM; order: falling. // ordering of labels required in reply
Result: P, R, Q

---

target: wild type c-kit (Homo sapiens (Human), UniProt P10721); assay: MSD Phospho c-Kit (Tyr721) Assay Whole Cell Lysate Kit in SCF-stimulated M-07e cells (pKIT assay, marked *); type: cell-based; details: Meso Scale Discovery (MSD) assay (values marked *)
Sequence (P10721 26-976): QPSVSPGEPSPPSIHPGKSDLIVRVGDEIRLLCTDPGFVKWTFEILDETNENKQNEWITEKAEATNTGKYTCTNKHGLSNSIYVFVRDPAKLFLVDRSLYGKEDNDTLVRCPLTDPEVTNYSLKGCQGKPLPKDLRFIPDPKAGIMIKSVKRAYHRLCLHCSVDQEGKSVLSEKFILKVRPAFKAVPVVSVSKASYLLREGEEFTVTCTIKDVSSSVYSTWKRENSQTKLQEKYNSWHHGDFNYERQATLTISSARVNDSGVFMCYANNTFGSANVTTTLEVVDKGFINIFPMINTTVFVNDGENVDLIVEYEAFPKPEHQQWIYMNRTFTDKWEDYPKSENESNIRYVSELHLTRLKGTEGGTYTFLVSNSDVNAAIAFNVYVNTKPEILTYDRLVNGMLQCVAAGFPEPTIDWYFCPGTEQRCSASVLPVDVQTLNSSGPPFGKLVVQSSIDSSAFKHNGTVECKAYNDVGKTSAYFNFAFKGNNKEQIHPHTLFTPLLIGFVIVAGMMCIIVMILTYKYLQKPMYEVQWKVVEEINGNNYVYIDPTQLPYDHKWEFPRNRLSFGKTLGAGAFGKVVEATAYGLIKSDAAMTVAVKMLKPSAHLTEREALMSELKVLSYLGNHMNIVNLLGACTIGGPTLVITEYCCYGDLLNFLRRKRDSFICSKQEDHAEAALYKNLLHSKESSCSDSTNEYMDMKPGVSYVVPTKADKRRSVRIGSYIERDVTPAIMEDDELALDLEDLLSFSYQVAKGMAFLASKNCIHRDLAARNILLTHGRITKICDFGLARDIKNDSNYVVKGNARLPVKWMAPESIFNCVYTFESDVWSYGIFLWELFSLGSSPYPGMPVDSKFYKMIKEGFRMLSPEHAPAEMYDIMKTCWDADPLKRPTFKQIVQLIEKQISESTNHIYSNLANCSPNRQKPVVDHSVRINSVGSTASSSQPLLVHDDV
value-type: IC50 (nM)

{"columns": ["compound", "measured-on", "IC50 [nM]"],
 "data": [
  ["Cc1ccc(-n2nnc(C3CN(S(=O)(=O)C4CC4)C3)n2)cc1NC(=O)c1cnn2ccccc12", "wild type c-kit (Homo sapiens (Human), UniProt P10721)", 2.9],
  ["Cc1ccc(-c2nnn(Cc3ccccc3F)n2)cc1NC(=O)c1cnn2ccccc12", "wild type c-kit (Homo sapiens (Human), UniProt P10721)", 1.6],
  ["Cc1ccc(-c2nnn(C[C@@H]3CC3(F)F)n2)cc1NC(=O)c1cnn2ccccc12 (single isomer, unassigned)", "wild type c-kit (Homo sapiens (Human), UniProt P10721)", 7.6]
]}

A. Cc1ccc(-c2nnn(CC3CCCCO3)n2)cc1NC(=O)c1cnn2ccccc12 (centres unmarked)
B. Cc1ccc(-c2nnn(C)n2)cc1NC(=O)c1cnn2ccc(-c3cn[nH]c3)cc12
Query: Would you let me know which has the greater IC50 value, A or B ? Return value: the label identifying the chosen record.
Result: A
(A: 9.5 nM, B: 5.4 nM)

---

target: wild type c-kit (Homo sapiens (Human)); test: PathScan phospho c-kit (Tyr719) sandwich ELISA in SCF-stimulated M-07e cells (pKIT assay); format: cell-based; details: ELISA assay (values not marked *)
value-type: IC50 (nM)

a. Cc1nn(C[C@H](C)O)cc1-c1ccn2ncc(C(=O)Nc3cc(-c4nnn(C5CC5)n4)ccc3Cl)c2c1
b. O=C(Nc1cc(-c2nnn(C3CC3)n2)ccc1Cl)c1cnn2ccc(-c3cnn(CC4(O)CCOCC4)c3)cc12
c. Cc1ccc(-c2nnn(C3CC(F)(F)C3)n2)cc1NC(=O)c1cnn2ccc(N3CC(O)C3)cc12
Query: Ranking criterion: IC50, increasing numeric value. Items: as listed above. // ordering of labels required in reply
Result: a, b, c

---

molecular target: wild type c-kit (Homo sapiens (Human), UniProt P10721); experiment: PathScan phospho c-kit (Tyr719) sandwich ELISA in SCF-stimulated M-07e cells (pKIT assay); type: cell-based; settings: ELISA assay (values not marked *)
pIC50: −log10 of the molar value.
value-type: pIC50

Here's what some known entries look like.
{"columns": ["compound", "pIC50"],
 "data": [
  ["COC[C@H](O)Cn1cc(-c2ccn3ncc(C(=O)Nc4cc(-c5nnn(C6CC6)n5)c(F)cc4Cl)c3c2)c(C)n1 [Example 279]", 9.22],
  ["Cc1cc(F)c(-c2nnn(C3CC(F)(F)C3)n2)cc1NC(=O)c1cnn2ccc(N3CCOCC3)cc12 [Example 59]", 8.35],
  ["[2H]C([2H])([2H])N1CCN(c2ccn3ncc(C(=O)Nc4cc(-n5ncc(C6CN(C(=O)OC)C6)n5)ccc4C)c3c2)CC1 [Example 82]", 7.63]
]}

A. COCCS(=O)(=O)N1CC(n2nnc(-c3ccc(C)c(NC(=O)c4cnn5ccccc45)c3)n2)C1 [Example 178]
B. Cc1cc(F)c(-c2nnn(C3CC3)n2)cc1NC(=O)c1cnn2ccc(-c3cnn(CC(C)(C)O)c3C)cc12 [Example 240]
C. COCC(C)Nc1ccn2ncc(C(=O)Nc3cc(-c4nnn(C5CN(C(=O)OC)C5)n4)ccc3C)c2c1 (stereo in doubt) [Example 128]
D. Cc1ccc(-c2nnn(C)n2)cc1NC(=O)c1cnn2ccc(-c3cnn(CCO)c3)cc12 [Example 47]
E. Cc1ccc(-c2nnn(C)n2)cc1NC(=O)c1cnn2ccc(-c3cn(CCO)nc3C)cc12 [Example 228]
Query: Number of compounds to sort: 5. Sort criterion: pIC50, ascending. // ordering of labels required in reply
Result: C, A, D, E, B
